The measurements presented in this section are drawn from patent US20240287108A1.

Experiment: solubility of P18 in water and in Soluplus®/Labrasol® micelle formulation
Type: physicochemical
Settings: water; read-out: solubility in water
MEASUREMENT KIND: solubility

State the recorded solubility for this entry: CCC1CC(N2CCCCC2)CC(CC)N1C(=O)Oc1c(OC)cc(-c2nc(-c3ccccc3)c(-c3cccs3)[nH]2)cc1OC (stereo not shown)
< 500 µg/mL

====

Test: in vitro stability in CES1−/− mouse plasma
Assay type: in vitro ADME
Conditions: CES1−/− mouse plasma, 10 μM, 37° C.
MEASUREMENT KIND: Stability in mouse (% remaining at 1h) Mean + Std Error, Plasma

Study these solved cases before continuing.
{"columns": ["COMPOUND", "OBSERVED"],
 "data": [
  ["COc1cc(-c2nc(-c3ccccc3)c(-c3cccs3)[nH]2)cc(OC)c1OC(=O)C1=CN(C)C=CC1", "52 ± 2%"],
  ["CCCCCNC(=O)Oc1c(OC)cc(-c2nc(-c3ccccc3)c(-c3cccs3)[nH]2)cc1OC", "60 ± 6%"],
  ["CCCCCCCNC(=O)Oc1c(OC)cc(-c2nc(-c3ccccc3)c(-c3cccs3)[nH]2)cc1OC", "60 ± 4%"]
]}

Parameters: items (list). Returns: Stability in mouse (% remaining at 1h) Mean + Std Error, Plasma for each item.
1. CCC1CC(N2CCCCC2)CC(CC)N1C(=O)Oc1c(OC)cc(-c2nc(-c3ccccc3)c(-c3cccs3)[nH]2)cc1OC (stereo not shown)
2. COc1cc(-c2nc(-c3ccccc3)c(-c3cccs3)[nH]2)cc(OC)c1OC(=O)N(C)C
3. COc1cc(-c2nc(-c3ccccc3)c(-c3cccs3)[nH]2)cc(OC)c1OP(=O)(O)O
4. COc1cc(-c2nc(-c3ccccc3)c(-c3cccs3)[nH]2)cc(OC)c1OC(=O)N1C2CCC1CC(N1CCCCC1)C2 (stereo not shown)

92 ± 7%
96 ± 3%
91 ± 4%
87 ± 2%
